assay: Pharmacokinetic study, intravenous; format: in vivo; settings: mouse, plasma, male Balb/c mice, i.v. 2.5 mg/kg b.w. single dose, read-out: C initial (C0)
Reported endpoint: C0 (ng/mL)
Write the value in ng/mL as a bare number.

I would be grateful if you could share the reported C0 for CCCCCCCC(c1oc(CO)cc(=O)c1O)c1c[nH]c2ccccc12 (stereo not shown) [Compound 5] .
1220

###

assay: Pharmacokinetic study, intravenous; assay type: in vivo; settings: mouse, plasma, male Balb/c mice, i.v. 2.5 mg/kg b.w. single dose, read-out: Volume of distribution (Vd)
Reported endpoint: Vd (L/kg)
Just the number please, in L/kg, no unit attached.

So what's the measured Vd for this one? CCCCCCCC(c1oc(CO)cc(=O)c1O)c1c[nH]c2ccccc12 (stereo not shown)
7.61

###

Let's look at some molecules and their measured IC50.
test system: MDA-MB-231 cells; experiment: Cell viability (MTT) assay; format: cell-based; settings: Homo sapiens, MDA-MB-231, 48 h, 44 h + 4 h, mean ± SD of three experiments, read-out: IC50 values MDA-MB-231
Respond with the bare value in µM.

Worked cases, IC50 given:
>>> data_value("CCCCCCC(c1oc(CO)cc(=O)c1O)c1c[nH]c2ccccc12 (stereo not shown)")
3.84
>>> data_value("CCCCCCCCCC(c1oc(CO)cc(=O)c1O)c1c[nH]c2ccccc12 (stereo not shown)")
40.6
>>> data_value("CCCCCCCCCCCCCCCCCC(c1oc(CO)cc(=O)c1O)c1c[nH]c2ccccc12 (stereo not shown)")
48.5
>>> data_value("O=c1cc(CO)occ1O [Compound 1, reference compound]")
87.2

What value of IC50 has been reported for the following molecule? CCCC(c1oc(CO)cc(=O)c1O)c1c[nH]c2ccccc12 (stereo not shown)
43.2

So what does the record say about IC50 for COc1cccc2c1C(=O)c1c(O)c3c(c(O)c1C2=O)C[C@@](O)(C(=O)CO)C[C@@H]3O[C@H]1C[C@H](N)[C@H](O)[C@H](C)O1 [DOXO, doxorubicin, reference compound] ?
0.22

Returns the measured IC50 for the input molecule. Input: CCCCCCCCCCCCCCCC(c1oc(CO)cc(=O)c1O)c1c[nH]c2ccccc12 (stereo not shown)
45.7

# lookup: IC50 of CCCCCC(c1oc(CO)cc(=O)c1O)c1c[nH]c2ccccc12 (stereo not shown)
40.6

Form field: reported IC50 of CCCCCCCCCCCC(c1oc(CO)cc(=O)c1O)c1c[nH]c2ccccc12 (stereo not shown)
45.2

Could you share which IC50 value was measured for CCCCCCCCCCC(c1oc(CO)cc(=O)c1O)c1c[nH]c2ccccc12 (stereo not shown) ?
49.5

###

assay: Pharmacokinetic study, intravenous; type: in vivo; conditions: mouse, plasma, male Balb/c mice, i.v. 2.5 mg/kg b.w. single dose, read-out: Area under curve (AUC0-∞)
Reported endpoint: AUC(0-inf) (ng·h/mL)
API: value field is a number in ng·h/mL; no unit string.

# AUC(0-inf) lookup, item CCCCCCCC(c1oc(CO)cc(=O)c1O)c1c[nH]c2ccccc12 (stereo not shown)
406

###

experiment: Pharmacokinetic study, intravenous; assay type: in vivo; conditions: mouse, plasma, male Balb/c mice, i.v. 2.5 mg/kg b.w. single dose, read-out: Half life (t1/2) (converted)
Reported endpoint: half-life (min)
// units = min; emit number, no label

Please report the recorded half-life for CCCCCCCC(c1oc(CO)cc(=O)c1O)c1c[nH]c2ccccc12 (stereo not shown) [Compound 5] .
25.8
